The origin of these recorded values is patent US10206937B2.

Reported pKi values for a set of compounds
- study-target: purified class A, C and D enzymes (UniProt Q9F663)
- Construct: rows headed: Ki (KPC-2, NCF); other: purified KPC-2; nitrocefin reporter substrate
- experimental-context: read-out: Ki (KPC-2, NCF); purified KPC-2; nitrocefin reporter substrate
pKi: −log10 of the molar value.

Here are 5 compounds together with their reported answers.
compound	pKi
CSc1ccc2c(c1C(=O)O)OB(O)[C@@H](Sc1nncn1C)C2	6.00 to 7.00
O=C(O)[C@H]1/C(=C/CO)O[C@@H]2CC(=O)N21	< 6.00
CC(C)COc1ccc2c(c1C(=O)O)OB(O)[C@@H](Sc1nncs1)C2	6.00 to 7.00
NC(=O)c1csc(S[C@H]2Cc3ccc(F)c(C(=O)O)c3OB2O)n1	> 7.00
N#CCS[C@H]1Cc2ccc(F)c(C(=O)O)c2OB1O	> 7.00

Reported pKi for COc1ccc2c(c1C(=O)O)OB(O)[C@@H](Sc1c[nH]nn1)C2 was > 7.00

Reported pKi for O=C(O)c1c(OCCF)ccc2c1OB(O)[C@@H](Sc1nncs1)C2 was 6.00 to 7.00

Reported pKi for COc1ccc2c(c1C(=O)O)OB(O)[C@@H](Sc1nncn1CCCC(=O)O)C2 was > 7.00

Reported pKi for C[S+]([O-])c1ccc2c(c1C(=O)O)OB(O)[C@@H](Sc1nnc(N)s1)C2 (stereo partly drawn) was 6.00 to 7.00

###

- procedure-summary: Serum stability of prodrugs: hydrolysis by rat serum
- Format: in vitro ADME
- experimental-context: rat serum, prodrug, 1 hr
Each entry gets NO if its Conc. at t = 1 hr stays under 30 µM, and YES if its Conc. at t = 1 hr is 30 µM or above.

given-smiles	category-label
COc1ccc2c(c1C(=O)OCOC(C)=O)OB(O)[C@@H](Sc1nncs1)C2	NO
COc1ccc2c(c1C(=O)OCOC(=O)C(C)(C)C)OB(O)[C@@H](Sc1nncs1)C2	NO

Input: Please indicate if the recorded Conc. at t = 1 hr for COc1ccc2c(c1C(=O)OCOC(=O)OC(C)C)OB(O)[C@@H](Sc1nncs1)C2 meets or exceeds 30 µM.
Output: NO

Input: Please indicate if the recorded Conc. at t = 1 hr for COc1ccc2c(c1C(=O)OCOC(=O)C(C)C)OB(O)[C@@H](Sc1nncs1)C2 meets or exceeds 30 µM.
Output: YES

Input: Please indicate if the recorded Conc. at t = 1 hr for CCOC(=O)OCOC(=O)c1c(OC)ccc2c1OB(O)[C@@H](Sc1nncs1)C2 meets or exceeds 30 µM.
Output: YES

###

- study-target: purified class A, C and D enzymes (UniProt Q9F663)
- Construct: rows headed: Ki (KPC-2, NCF); other: purified KPC-2; nitrocefin reporter substrate
- experimental-context: read-out: Ki (KPC-2, NCF); purified KPC-2; nitrocefin reporter substrate
pKi: −log10 of the molar value.
value-type: pKi

Here are 3 compounds together with their reported answers.
given-smiles	study-target	pKi
COc1ccc2c(c1C(=O)O)OB(O)[C@@H](Sc1cnns1)C2	purified class A, C and D enzymes (UniProt Q9F663)	> 7.00
COc1ccc2c(c1C(=O)O)OB(O)[C@@H](SCCc1nnc(N)s1)C2	purified class A, C and D enzymes (UniProt Q9F663)	> 7.00
COc1ccc2c(c1C(=O)O)OB(O)[C@@H](Sc1nnc(SC3CNC3)s1)C2	purified class A, C and D enzymes (UniProt Q9F663)	6.00 to 7.00

Reported pKi for NCCSc1nnc(S[C@H]2Cc3cccc(C(=O)O)c3OB2O)s1 was > 7.00

Reported pKi for COc1ccc2c(c1C(=O)O)OB(O)[C@@H](Sc1nncn1CCCCN)C2 was 6.00 to 7.00

Reported pKi for CSCCOc1ccc2c(c1C(=O)O)OB(O)[C@@H](Sc1nncs1)C2 was 6.00 to 7.00

Reported pKi for Cn1cnnc1S[C@H]1Cc2ccc(F)c(C(=O)O)c2OB1O was 6.00 to 7.00

Reported pKi for COc1ccc2c(c1C(=O)O)OB(O)[C@@H](Sc1nncn1N)C2 was 6.00 to 7.00

Reported pKi for CC(C)Oc1ccc2c(c1C(=O)O)OB(O)[C@@H](Sc1nncs1)C2 was 6.00 to 7.00
